Sourced from patent US20260007681A1

Biological target: CRBN/DDB1 (Homo sapiens (Human))
Sequence (Q96SW2 whole entry): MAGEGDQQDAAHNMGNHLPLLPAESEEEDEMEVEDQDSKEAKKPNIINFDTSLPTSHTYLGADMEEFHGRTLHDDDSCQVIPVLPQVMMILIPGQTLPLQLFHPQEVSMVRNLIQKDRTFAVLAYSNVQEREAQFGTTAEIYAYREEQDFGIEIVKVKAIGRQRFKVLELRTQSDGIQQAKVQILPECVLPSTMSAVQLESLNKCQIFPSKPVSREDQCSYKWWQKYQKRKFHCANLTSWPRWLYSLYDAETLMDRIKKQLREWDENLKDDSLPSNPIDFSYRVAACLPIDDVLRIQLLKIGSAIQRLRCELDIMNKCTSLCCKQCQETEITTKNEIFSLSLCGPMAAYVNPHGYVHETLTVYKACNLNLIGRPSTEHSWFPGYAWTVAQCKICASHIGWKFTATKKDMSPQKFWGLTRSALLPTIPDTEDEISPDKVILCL
Sequence (Q16531 whole entry partner): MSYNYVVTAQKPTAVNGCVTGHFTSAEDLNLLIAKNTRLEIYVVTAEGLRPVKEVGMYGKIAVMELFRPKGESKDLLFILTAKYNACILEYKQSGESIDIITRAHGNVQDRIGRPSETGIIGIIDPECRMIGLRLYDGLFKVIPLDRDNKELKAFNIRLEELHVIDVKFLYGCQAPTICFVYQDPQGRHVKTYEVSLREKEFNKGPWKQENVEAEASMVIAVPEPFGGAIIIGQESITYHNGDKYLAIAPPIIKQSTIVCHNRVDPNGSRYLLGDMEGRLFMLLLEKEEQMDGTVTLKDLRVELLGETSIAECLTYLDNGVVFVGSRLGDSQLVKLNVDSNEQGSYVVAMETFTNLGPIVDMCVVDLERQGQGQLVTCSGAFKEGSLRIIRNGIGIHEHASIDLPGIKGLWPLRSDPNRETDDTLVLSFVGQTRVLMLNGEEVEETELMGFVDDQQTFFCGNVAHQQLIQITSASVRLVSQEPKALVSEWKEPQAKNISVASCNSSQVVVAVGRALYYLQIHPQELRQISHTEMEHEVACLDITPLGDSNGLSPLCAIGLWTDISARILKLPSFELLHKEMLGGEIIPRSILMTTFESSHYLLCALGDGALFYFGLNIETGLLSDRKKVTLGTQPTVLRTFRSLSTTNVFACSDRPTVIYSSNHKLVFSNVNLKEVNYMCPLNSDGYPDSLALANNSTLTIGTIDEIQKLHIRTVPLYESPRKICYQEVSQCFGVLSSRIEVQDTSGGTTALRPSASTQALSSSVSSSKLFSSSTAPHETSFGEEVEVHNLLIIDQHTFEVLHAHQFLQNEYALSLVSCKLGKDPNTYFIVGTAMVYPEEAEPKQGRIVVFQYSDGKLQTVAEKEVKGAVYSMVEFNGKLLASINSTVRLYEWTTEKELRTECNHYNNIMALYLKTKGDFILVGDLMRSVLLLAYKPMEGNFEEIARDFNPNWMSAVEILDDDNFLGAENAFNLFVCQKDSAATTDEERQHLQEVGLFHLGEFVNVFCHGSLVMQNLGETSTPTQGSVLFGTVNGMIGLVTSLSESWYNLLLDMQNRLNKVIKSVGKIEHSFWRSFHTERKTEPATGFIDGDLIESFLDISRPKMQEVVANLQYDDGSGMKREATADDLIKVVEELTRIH
Format: binding
Conditions: His tagged CRBN+DDB-DLS7+CXU4, Cy5-labeled Thalidomide probe, one hour incubation; read-out: CRBN HTRF IC50

| Molecule | IC50 |
| --- | --- |
| C[C@@H]1Cc2c([nH]c3ccccc23)[C@@H](c2cnc(N3CCC4(CCC(CN5CCN6c7cc8c(cc7OC[C@@H]6C5)C(=O)N([C@H]5CCC(=O)NC5=O)C8)CC4)CC3)nc2)N1CC(C)(C)F | > 5 µM |
| COc1cc(N2CCC(CN3CCC4(CC3)COc3cc5c(cc34)CN(C3CCC(=O)NC3=O)C5=O)CC2)ccc1[C@@H]1c2[nH]c3ccccc3c2C[C@@H](C)N1CC(F)F (stereo partly shown) | 0.05 to 0.5 µM |
| COc1cc(N2CCC(CN3CCC(c4ccc(C(=O)NC5CCC(=O)NC5=O)nc4)CC3)CC2)ccc1[C@@H]1c2[nH]c3ccccc3c2C[C@@H](C)N1CC(F)F (stereo partly shown) | 0.5 to 5 µM |
| C[C@H]1Cc2c([nH]c3ccccc23)[C@H](c2cnc(N3CCC4(CC3)C[C@H](CN3CCN5c6cc7c(cc6OC[C@@H]5C3)C(=O)N([C@@H]3CCC(=O)NC3=O)C7)CO4)nc2)N1CC(F)F | 0.05 to 0.5 µM |
| COc1cc(N2CCC(CN3CCN4c5ccc6c(c5OC[C@H]4C3)CN([C@H]3CCC(=O)NC3=O)C6=O)CC2)ccc1[C@@H]1c2[nH]c3ccccc3c2C[C@@H](C)N1CC(F)F | 0.05 to 0.5 µM |
| C[C@@H]1Cc2c([nH]c3ccccc23)[C@@H](c2cnc(N3CCC(N4CCC(c5ccc(NC6CCC(=O)NC6=O)cc5F)CC4)CC3)nc2)N1CC(F)F (stereo partly shown) | 0.05 to 0.5 µM |
| CS(=O)(=O)N1CCc2c([nH]c3ccccc23)[C@@H]1c1c(F)cc(N2CCC3(CCN(C(=O)CN4Cc5cc6c(cc5C4)C(=O)N(C4CCC(=O)NC4=O)C6=O)CC3)CC2)cc1F (stereo partly shown) | > 5 µM |
| C[C@H]1Cc2c([nH]c3ccccc23)[C@H](c2cnc(N3CCC4(CC3)C[C@H](CN3CCN5c6ccc7c(c6OC[C@@H]5C3)CN([C@@H]3CCC(=O)NC3=O)C7=O)CO4)nc2)N1CC(F)F | 0.05 to 0.5 µM |
| COc1cc(N2CCC(CN3CCN4c5cc(F)c(C(=O)N[C@H]6CCC(=O)NC6=O)cc5OC[C@@H]4C3)CC2)ccc1[C@@H]1c2[nH]c3ccccc3c2C[C@@H](C)N1CC(F)F | 0.5 to 5 µM |
| C[C@@H]1Cc2c([nH]c3ccccc23)[C@@H](c2cnc([C@H]3CC[C@H](C(=O)N4CCC(N5Cc6cc7c(cc6C5)C(=O)N(C5CCC(=O)NC5=O)C7)CC4)CC3)nc2)N1CC(F)F (stereo partly shown) | < 0.05 µM |
